switch fluorescence ratio for assorted sequences
System: ATP;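 also: ATP exposure 15 min at 22 °C before imaging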
Assay: switch fluorescence ratio, 500 uM ATP over buffer (Cy3 cluster intensity, sum of 5 cycles each) (fold (ratio)); higher = stronger signal-on switching upon ATP binding; sequences stand for … in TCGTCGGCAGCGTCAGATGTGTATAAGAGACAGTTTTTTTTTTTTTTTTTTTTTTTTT…TC
Conditions: aptamer strand: ATP DNA aptamer (quencher-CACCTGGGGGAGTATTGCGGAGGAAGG + anchor), 100 nM annealed; ATP concentration: 500 uM
endpoint.label: switch fluorescence ratio

INSERT INTO assay_data (monomer_sequence, assay_value) VALUES
  ('AAATTTTGAA', 0.977),
  ('TCGTAGTATT', 0.993),
  ('GACCTATGGA', 0.997),
  ('TGTAGTGAGT', 0.959),
  ('GTCAGGTCTT', 0.975),
  ('TTTACTTTCC', 1.56),
  ('ATAGCGGAAT', 1.01),
  ('TGGGTTTTAA', 0.999),
  ('AGTCGTGTGT', 0.971),
  ('GGCAGGGGAT', 1.33),
  ('TTTCATTTGT', 1.02),
  ('GGCGGAGTGC', 1.01),
  ('ATTGCGAGGC', 1.04),
  ('AAATTTGGGG', 1),
  ('ACGAAGAGTT', 1.05),
  ('GCAACGTCAA', 1.07),
  ('CCTTGGGGAA', 0.98),
  ('AACCGCGTTG', 1.06),
  ('TCGTGGTTTA', 0.994),
  ('GGGAATGTT', 0.992),
  ('AACGATTTTG', 1.03),
  ('CAGAGTAGGG', 0.969),
  ('TTTGACGGAA', 1.27),
  ('TCCGGCCAGC', 1.28),
  ('GTACTTCTGT', 0.96),
  ('GGCGGTAAGA', 1),
  ('CCGGAAAGAG', 1.06),
  ('TAAAGTGGT', 0.986),
  ('GGGGGGACAC', 1.03),
  ('AGAGGGGCCA', 1.01),
  ('GGTAAGGGGA', 0.991),
  ('AAGCGGGTGG', 1.05),
  ('TTTGGTTCGC', 0.971),
  ('AAGAGGGGCT', 1.01),
  ('AGAAATGTTA', 1.02),
  ('GGCTGAATGG', 0.988),
  ('CGGGGTTGTC', 0.966),
  ('TTAGGTTTCT', 1),
  ('GGGTGGGCGC', 1.01),
  ('AGGGGGATTA', 0.993),
  ('CGGAAATTTG', 1.02),
  ('TGAATTTTTG', 0.989),
  ('CGTACGTCAT', 1.08),
  ('GGTTGGCCGC', 1.02),
  ('ATAGGGGCAT', 1),
  ('CCTGGCTTGA', 0.996),
  ('ACTATATTTA', 1.03),
  ('GTGGATTAGA', 0.977),
  ('GTGTGAATGT', 1.01),
  ('GGGTGGGGTT', 0.991),
  ('CATCTTTGAA', 1.05),
  ('AAATGCAAAG', 0.991),
  ('GATCGCCGTT', 1.07),
  ('CCAGTTTGGT', 0.987),
  ('GTTGGGGGCG', 0.991),
  ('GACTTTGGGA', 0.999),
  ('TCGAGGAATT', 1.02),
  ('AATGGGGTCA', 0.991),
  ('AGGCTTGTGC', 1.01),
  ('GATGACAGGT', 1.03),
  ('GGTTCCTATG', 0.991),
  ('GAAGGGCCTG', 1.05),
  ('AAAGGCCAGT', 1.03),
  ('GATCCAGAAT', 0.998),
  ('GGAATCCTTT', 0.998),
  ('GTTTTTTAGC', 0.991),
  ('CCAGGTGTTA', 2.31),
  ('ATGGTGACGG', 0.976),
  ('TTTTGGGCGG', 0.99),
  ('AAAGGGTTGC', 0.999),
  ('AGTATTCGGG', 0.976),
  ('CATGTAGCCG', 1.01),
  ('ATAATTTAGC', 0.961),
  ('CGATTGATGT', 1.02),
  ('CTGTCTGGGT', 0.993),
  ('TCCGGAGGAC', 1.86),
  ('TAAGGAGGGG', 0.981),
  ('ATACTCGTGG', 1.01),
  ('TATGGGAAGA', 0.985),
  ('TGAAATGATC', 1),
  ('CTAATAGTTA', 0.972),
  ('ATCCAGACGG', 1.04),
  ('GGTGTTCAGC', 0.981),
  ('CAATTGGTTT', 0.997),
  ('TGGGTTACAT', 1.01),
  ('TTGGCCCGGC', 1.52);

* * *

Tested on: ATP;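 also: ATP exposure 15 min at 22 °C before imaging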
Experiment: switch fluorescence ratio, 500 uM ATP over buffer (Cy3 cluster intensity, sum of 5 cycles each) (fold (ratio)); higher = stronger signal-on switching upon ATP binding; sequences stand for … in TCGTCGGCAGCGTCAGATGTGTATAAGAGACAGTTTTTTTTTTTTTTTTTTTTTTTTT…TC
Conditions: aptamer strand: ATP DNA aptamer (quencher-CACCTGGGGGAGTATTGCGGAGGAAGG + anchor), 100 nM annealed; ATP concentration: 500 uM
switch fluorescence ratio for assorted sequences
endpoint.label: switch fluorescence ratio

INSERT INTO results (monomer_sequence, assay_value) VALUES
  ('CATTTAGCTG', 0.988),
  ('GGGATAGATA', 1.03),
  ('CGTTTTTGTA', 0.99),
  ('CTAGGTCGGA', 1.01),
  ('CATTTGAGGT', 1),
  ('ACTCTTGCTT', 1.07),
  ('TGGGGGGACG', 1.03),
  ('AGGTGATTTT', 0.991),
  ('TATATTTCGG', 0.995),
  ('TTTATAGCT', 1.02),
  ('GAGCGGTATC', 0.997),
  ('CAGGGTGGGT', 1.02),
  ('GAGGGCACGA', 1.09),
  ('GACAGTAGTC', 1),
  ('TTAGATTGTG', 0.978),
  ('TAATCAAAGT', 1.02),
  ('GCTTCAGGG', 1),
  ('AATGATTGAA', 0.968),
  ('GGCGCACGGG', 1.02),
  ('TGAACCAAGC', 1.08),
  ('GGACCCGGTT', 1.04),
  ('TAAGCGGGTC', 1),
  ('GCAGGGAAGG', 1.03),
  ('CTCGGGGTTT', 0.998),
  ('CCAATCGGGG', 1.03),
  ('GGTTTAAAAT', 0.958),
  ('CGCTGTGCGG', 0.99),
  ('AAGGCTGTAC', 1.71),
  ('TGCTTGAGGG', 1),
  ('CCGGGGAGGA', 1.06),
  ('CGATTTTGTT', 0.989),
  ('CGGTTGTACC', 1.01),
  ('CAGGAGAGGG', 1.02),
  ('ACGTTGCGTT', 1.02),
  ('TTTCGTCGGC', 1.05),
  ('CCTCTTAACT', 1.13),
  ('AGGGGGGAAA', 1.01),
  ('TTGGTCTTGT', 1),
  ('CTAAAAAATT', 1.01),
  ('GGGTCACGTT', 0.997),
  ('ATTCTTTTTT', 0.997),
  ('GGGCGGGATT', 1),
  ('GTAAGATGAA', 1.01);

* * *

Test system: ATP;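 also: ATP exposure 15 min at 22 °C before imaging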
Assay: switch fluorescence ratio, 500 uM ATP over buffer (Cy3 cluster intensity, sum of 5 cycles each) (fold (ratio)); higher = stronger signal-on switching upon ATP binding; sequences stand for … in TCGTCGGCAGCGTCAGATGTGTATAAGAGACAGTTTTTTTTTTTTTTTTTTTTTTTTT…TC
Settings: aptamer strand: ATP DNA aptamer (quencher-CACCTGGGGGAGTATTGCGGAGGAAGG + anchor), 100 nM annealed; ATP concentration: 500 uM
switch fluorescence ratio for assorted sequences
endpoint.label: switch fluorescence ratio

INSERT INTO measurements (monomer_sequence, endpoint_label, assay_value) VALUES
  ('TCTTAGGACG', 'switch fluorescence ratio', 0.997),
  ('AAAGAGGTAG', 'switch fluorescence ratio', 0.998),
  ('TTTTTAACAT', 'switch fluorescence ratio', 0.993),
  ('ACGGCGGTGC', 'switch fluorescence ratio', 1.03),
  ('CATCGGGGGG', 'switch fluorescence ratio', 1),
  ('TTGGTTGGAG', 'switch fluorescence ratio', 0.996),
  ('TGTGTTAGGG', 'switch fluorescence ratio', 0.979),
  ('GAGTAGGGTA', 'switch fluorescence ratio', 1.01),
  ('GGGGGAGTGA', 'switch fluorescence ratio', 0.972),
  ('CGCTATAAGG', 'switch fluorescence ratio', 1.03),
  ('GGTTGGGTTA', 'switch fluorescence ratio', 1.03),
  ('AATGTAGGGA', 'switch fluorescence ratio', 1.06),
  ('TTTTATATTA', 'switch fluorescence ratio', 1),
  ('GTGAGTAGGG', 'switch fluorescence ratio', 0.989),
  ('GATGAGTCTG', 'switch fluorescence ratio', 0.98),
  ('AGAAAGTTTT', 'switch fluorescence ratio', 0.993),
  ('GGAATGGGTG', 'switch fluorescence ratio', 1),
  ('CATTGGGGGG', 'switch fluorescence ratio', 0.99),
  ('TGGGGACTCC', 'switch fluorescence ratio', 0.997),
  ('CTGTTAATTG', 'switch fluorescence ratio', 1.02),
  ('AATCTGAAGA', 'switch fluorescence ratio', 0.998),
  ('TTGGTGAGTT', 'switch fluorescence ratio', 0.981),
  ('GCAGGCCTGA', 'switch fluorescence ratio', 1.01),
  ('GGGGGGTCAG', 'switch fluorescence ratio', 1.01),
  ('CCACAGAAAA', 'switch fluorescence ratio', 1.03),
  ('ATTCATGGGG', 'switch fluorescence ratio', 0.98),
  ('TTTATCGGCT', 'switch fluorescence ratio', 1.06),
  ('TGGGGTTTGG', 'switch fluorescence ratio', 0.984),
  ('TGGGTACTGG', 'switch fluorescence ratio', 1.02),
  ('CTGGTTGGAG', 'switch fluorescence ratio', 0.995),
  ('GGTCGGTTGG', 'switch fluorescence ratio', 0.976),
  ('GCGAGGTCGA', 'switch fluorescence ratio', 0.991),
  ('TCAGGGACAA', 'switch fluorescence ratio', 1.01),
  ('TTTTCCTTCT', 'switch fluorescence ratio', 1.09),
  ('GGCGGATGGG', 'switch fluorescence ratio', 1.02),
  ('TATATTGGGA', 'switch fluorescence ratio', 0.992),
  ('GGACGGAATG', 'switch fluorescence ratio', 0.955),
  ('CGTGTGAGGT', 'switch fluorescence ratio', 0.997),
  ('ACCATTACAC', 'switch fluorescence ratio', 1.24),
  ('TACACTTTGC', 'switch fluorescence ratio', 1.03),
  ('GAGTTGTTAT', 'switch fluorescence ratio', 0.973),
  ('AACCAGGGGG', 'switch fluorescence ratio', 1.06),
  ('GAGGTAAGTG', 'switch fluorescence ratio', 0.954),
  ('AGATTTGTTG', 'switch fluorescence ratio', 0.978),
  ('TGATTGAATG', 'switch fluorescence ratio', 0.978),
  ('TTTAAGTCTA', 'switch fluorescence ratio', 0.992),
  ('GGGTAGTGTA', 'switch fluorescence ratio', 0.995),
  ('ACGGATTTGG', 'switch fluorescence ratio', 0.993),
  ('AATAGGAGAG', 'switch fluorescence ratio', 0.987),
  ('CGTAGAATGT', 'switch fluorescence ratio', 0.992),
  ('TGGGCGGGAG', 'switch fluorescence ratio', 0.993),
  ('ATAAGTGCGA', 'switch fluorescence ratio', 0.983),
  ('TAAAAAGCTC', 'switch fluorescence ratio', 1.01),
  ('CCTGTGATTC', 'switch fluorescence ratio', 1.23),
  ('TTTCAAATGG', 'switch fluorescence ratio', 0.975),
  ('GAGGTACGTA', 'switch fluorescence ratio', 1.01),
  ('TTGCGATGGT', 'switch fluorescence ratio', 1.02),
  ('CTTGGACGGG', 'switch fluorescence ratio', 0.971),
  ('TAGGTGGGGT', 'switch fluorescence ratio', 0.971),
  ('CTTGATGCGA', 'switch fluorescence ratio', 1.03),
  ('TCGGGAGAGC', 'switch fluorescence ratio', 1.04),
  ('ATTCCATGGT', 'switch fluorescence ratio', 0.991),
  ('TCGGTTTTGT', 'switch fluorescence ratio', 0.983),
  ('TTGACAAACG', 'switch fluorescence ratio', 1.1),
  ('TACAAGCGTA', 'switch fluorescence ratio', 0.992),
  ('GAGGTCGGGC', 'switch fluorescence ratio', 0.94),
  ('GACCCAAGGC', 'switch fluorescence ratio', 1.19),
  ('ACCGGGTTGG', 'switch fluorescence ratio', 0.999),
  ('ATCCATATT', 'switch fluorescence ratio', 1.03),
  ('TTTCGTTTGG', 'switch fluorescence ratio', 0.981),
  ('TTCCGTTGGG', 'switch fluorescence ratio', 1.03),
  ('ATTCCTGTT', 'switch fluorescence ratio', 1),
  ('GGAAGATACG', 'switch fluorescence ratio', 1.03),
  ('GTTTAACCGG', 'switch fluorescence ratio', 1.01),
  ('ATGATTAGTT', 'switch fluorescence ratio', 1.01),
  ('AAGTATATTT', 'switch fluorescence ratio', 1),
  ('TCAGTTGGGG', 'switch fluorescence ratio', 0.991),
  ('ACTTATATA', 'switch fluorescence ratio', 1.02),
  ('CAAACAGGCA', 'switch fluorescence ratio', 1.03),
  ('CCTGGATGTA', 'switch fluorescence ratio', 1.02),
  ('CGGGGGCTGG', 'switch fluorescence ratio', 0.989),
  ('ACGAGTAGCT', 'switch fluorescence ratio', 1.01),
  ('GTGGAAGTCG', 'switch fluorescence ratio', 0.966),
  ('TGTTTGCGAA', 'switch fluorescence ratio', 1.01),
  ('CAGGGAGCCT', 'switch fluorescence ratio', 0.988),
  ('CTTATCTTTT', 'switch fluorescence ratio', 0.986);
